- System: HOP-92
- experiment.summary: NCI tumour cell line growth inhibition, 48 h
Active and inactive are the calls of the source. Rule as the data show it: active = GI50 up to about 1.1 µM and inactive = higher.
Answer with one of the outcomes given here: True for active, False for inactive

Before answering, review these 2 worked examples.
# compound, assigned.category
measured = [
    ("CC1=CC(=O)N(n2c(Cc3ccccc3)n[nH]c2=O)C1=O", "False"),
    ("CCC1NC(=O)C(NC(=O)c2ncccc2O)C(C)OC(=O)C(c2ccccc2)NC(=O)C2CC(=O)CCN2C(=O)C(Cc2ccccc2)N(C)C(=O)C2CCCN2C1=O (stereo not drawn)", "False"),
]

Q) # outcome recorded in this test, key = "c1ccc(C(CCN2CC3CCC(CC3)C2)c2ccccc2)cc1"
A) False

* * *

Listed here: items and their measured GI50.
- Test system: A549
- experiment.summary: NCI tumour cell line growth inhibition, 48 h
Activity calls are given as the source filed them. Rule as the data show it: active = GI50 up to about 1.1 µM and inactive = higher.

Use these answered entries as a reference point.
# compound, readout.label, reported.result
records = [
    ("CCOC(=O)C1=C(C)NC(=O)NC1c1coc2cc(C)cc(C)c2c1=O (centres undefined)", "GI50", "46.9 µM (inactive)"),
    ("CO[C@H]1/C=C/O[C@@]2(C)Oc3c(C)c(O)c4c(O)c(c(/C=N/N5CCN(C)CC5)c(O)c4c3C2=O)NC(=O)/C(C)=C\\C=C\\[C@H](C)[C@H](O)[C@@H](C)[C@@H](O)[C@@H](C)[C@H](OC(C)=O)[C@@H]1C", "GI50", "> 100 µM (inactive)"),
    ("CC1Cc2c(N)nc(NN)nc2NC1=O (centres undefined)", "GI50", "> 100 µM (inactive)"),
    ("O=[N+]([O-])c1ccc(/C(=N/c2ccccc2)SS/C(=N\\c2ccccc2)c2ccc([N+](=O)[O-])o2)o1", "GI50", "1.91 µM (inactive)"),
    ("O=[N+]([O-])c1ccc(/C=N/n2c(CO)nc3ccccc32)o1", "GI50", "10.5 µM (inactive)"),
]

The compound listed as "O=C1/C(=C/c2cccc3ccccc23)Cc2ccccc21" has a reported GI50 of 38.4 µM (inactive)

The compound listed as COc1ccc(C2Oc3cc(OC)c(OC)cc3C2CCl)cc1OC (centres undefined) has a reported GI50 of > 100 µM (inactive)

The compound listed as O=C1CCC(CCc2nc3ccccc3[nH]2)(c2ccccc2)C(=O)N1 (centres undefined) has a reported GI50 of > 100 µM (inactive)

The compound listed as "N#Cc1c(-c2ccc(Cl)cc2)c(C#N)c(=O)n(NS(=O)(=O)c2ccccc2)c1-c1ccccc1" has a reported GI50 of > 25 µM (inactive)

* * *

- Test system: NCI-H460
- experiment.summary: NCI tumour cell line growth inhibition, 48 h
Active and inactive are the calls of the source. Rule as the data show it: active = GI50 up to about 1.1 µM and inactive = higher. Where a SMILES comes first, the peptide text is derived from it. The star is where a group is joined. Boc = CC(C)(C)OC(=O)*
Answer with one of the outcomes given here: active, inactive

# compound, assigned.category
rows = [
    ("Cc1cn(Cc2ccccc2CCl)c(=O)[nH]c1=O", "inactive"),
]

Q) # outcome recorded in this test, key = COC(=O)C(C)NC(=O)C(CCSC)NC(=O)C(Cc1ccccc1)NC(=O)OC(C)(C)C (stereo not drawn) (Boc-Phe-Met-Ala-OMe; configuration not given here)
A) inactive

Q) # outcome recorded in this test, key = O=CNC(Cc1c[nH]cn1)C(=O)O (centres undefined)
A) inactive

Q) # outcome recorded in this test, key = C[C@@]12C=CC3C/C(=N\C(N)=S)C=C(CCCC4OCCO4)[C@]3(CC1)C2 (some centres undefined)
A) inactive
